- Assay Target: APT1 (Homo sapiens, UniProt O75608)
- Construct: made in house; host or cells: E. coli BL21 (DE3)
- Sequence (O75608 whole entry): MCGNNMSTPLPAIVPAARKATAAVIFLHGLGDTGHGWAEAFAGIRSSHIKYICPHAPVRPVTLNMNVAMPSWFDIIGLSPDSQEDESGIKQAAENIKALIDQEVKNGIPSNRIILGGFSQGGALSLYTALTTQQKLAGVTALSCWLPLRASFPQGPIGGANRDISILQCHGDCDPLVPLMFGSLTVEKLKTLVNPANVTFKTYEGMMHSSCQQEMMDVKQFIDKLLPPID
- Experimental Protocol: APT1 enzymatic assay, resorufin acetate as fluorogenic substrate
- Format: biochemical
- Condition Summary: Table 2, class symbols; read-out: IC50 (μM) APT1
Recorded IC50 by entry

- Molecule: "COc1ccc(N2CCN(C(=O)c3cc4c(s3)-c3ccccc3S(=O)(=O)C4)CC2)cc1 [ML349, reference compound]"
  IC50: "> 40 µM"
- Molecule: "CCCCCCOc1ccc(N2CCN(C(=O)c3cc4c(s3)-c3ccccc3S(=O)(=O)C4)CC2)cc1"
  IC50: "> 40 µM"
- Molecule: "CCCOc1ccc(N2CCN(C(=O)c3cc4c(s3)-c3ccccc3S(=O)(=O)C4)CC2)cc1"
  IC50: "> 40 µM"
- Molecule: "Cc1ccc(NC(=O)c2cc3c(s2)-c2ccccc2S(=O)(=O)C3)cc1"
  IC50: "> 40 µM"
- Molecule: "CCCNC(=O)c1cc2c(s1)-c1ccccc1S(=O)(=O)C2"
  IC50: "> 40 µM"
- Molecule: "CCCCCCCCc1ccc(NC(=O)c2cc3c(s2)-c2ccccc2S(=O)(=O)C3)cc1"
  IC50: "> 40 µM"
- Molecule: "CCCCCCN1CCN(C(=O)c2cc3c(s2)-c2ccccc2S(=O)(=O)C3)CC1"
  IC50: "> 40 µM"
- Molecule: "COc1ccc(N2CCN(C(=O)c3cc4cc(B(O)O)c5ccccc5c4s3)CC2)cc1"
  IC50: "0.1 to 1 µM"
- Molecule: "CCCCCCCCNC(=O)c1cc2c(s1)-c1ccccc1S(=O)(=O)C2"
  IC50: "> 40 µM"
- Molecule: "COc1ccc(N2CCN(C(=O)c3cc4c(s3)-c3ccccc3[S+]([O-])C4)CC2)cc1 (stereo not shown)"
  IC50: "> 40 µM"

###

Recorded IC50 by entry
- Assay Target: APT2 (Homo sapiens)
- Experimental Protocol: APT2 enzymatic assay, resorufin acetate as fluorogenic substrate
- Format: biochemical
- Set-up: made in house; host or cells: E. coli BL21 (DE3)
- Condition Summary: Table 2, class symbols; read-out: IC50 (μM) APT2

- Compound: "CCCNC(=O)c1cc2c(s1)-c1ccccc1S(=O)(=O)C2"
  Assay Target: "APT2 (Homo sapiens)"
  IC50: "> 40 µM"
- Compound: "O=C(CN1CCN(C(=O)c2ccco2)CC1)Nc1cc(C(F)(F)F)ccc1Cl [ML348, reference compound]"
  Assay Target: "APT2 (Homo sapiens)"
  IC50: "> 40 µM"
- Compound: "CCCCCCOc1ccc(N2CCN(C(=O)c3cc4c(s3)-c3ccccc3S(=O)(=O)C4)CC2)cc1"
  Assay Target: "APT2 (Homo sapiens)"
  IC50: "1 to 40 µM"
- Compound: "CCCCCCCCc1ccc(NC(=O)c2cc3c(s2)-c2ccccc2S(=O)(=O)C3)cc1"
  Assay Target: "APT2 (Homo sapiens)"
  IC50: "> 40 µM"
- Compound: "COc1ccc(N2CCN(C(=O)c3ccc(-c4ccccc4B(O)O)s3)CC2)cc1"
  Assay Target: "APT2 (Homo sapiens)"
  IC50: "1 to 40 µM"
- Compound: "CCCCCCCCNC(=O)c1cc2c(s1)-c1ccccc1S(=O)(=O)C2"
  Assay Target: "APT2 (Homo sapiens)"
  IC50: "> 40 µM"
- Compound: "Cc1ccc(NC(=O)c2cc3c(s2)-c2ccccc2S(=O)(=O)C3)cc1"
  Assay Target: "APT2 (Homo sapiens)"
  IC50: "> 40 µM"
- Compound: "COc1ccc(N2CCN(C(=O)c3cc(B(O)O)cs3)CC2)cc1"
  Assay Target: "APT2 (Homo sapiens)"
  IC50: "1 to 40 µM"
- Compound: "COc1ccc(N2CCN(C(=O)c3cc4c(s3)-c3ccccc3S(=O)(=O)C4)CC2)cc1 [ML349, reference compound]"
  Assay Target: "APT2 (Homo sapiens)"
  IC50: "0.1 to 1 µM"
- Compound: "CCCOc1ccc(N2CCN(C(=O)c3cc4c(s3)-c3ccccc3S(=O)(=O)C4)CC2)cc1"
  Assay Target: "APT2 (Homo sapiens)"
  IC50: "0.1 to 1 µM"
- Compound: "COc1ccc(N2CCN(C(=O)c3cc4cc(B(O)O)c5ccccc5c4s3)CC2)cc1"
  Assay Target: "APT2 (Homo sapiens)"
  IC50: "< 0.1 µM"
- Compound: "CCCCCCN1CCN(C(=O)c2cc3c(s2)-c2ccccc2S(=O)(=O)C3)CC1"
  Assay Target: "APT2 (Homo sapiens)"
  IC50: "1 to 40 µM"

###

Recorded log10 IC50 by entry
- Assay Target: APT2 (Homo sapiens)
- Experimental Protocol: APT2 enzymatic assay, resorufin acetate as fluorogenic substrate
- Assay type: biochemical
- Design: made in house; host or cells: E. coli BL21 (DE3)
- Condition Summary: Table 1; resorufin acetate as the substrate; read-out: IC50 (μM) APT2
Assay Readout: log10 IC50 (log10 of the value in µM)

- Compound: "CCCCCCN1CCN(C(=O)c2cc3c(s2)-c2ccccc2S(=O)(=O)C3)CC1"
  log10 IC50: 0.60
- Compound: "COc1ccc(N2CCN(C(=O)c3cc4cc(B(O)O)c5ccccc5c4s3)CC2)cc1"
  log10 IC50: -1.10
- Compound: "CCCOc1ccc(N2CCN(C(=O)c3cc4c(s3)-c3ccccc3S(=O)(=O)C4)CC2)cc1"
  log10 IC50: -0.08
- Compound: "CCCCCCOc1ccc(N2CCN(C(=O)c3cc4c(s3)-c3ccccc3S(=O)(=O)C4)CC2)cc1"
  log10 IC50: 0.31
- Compound: "COc1ccc(N2CCN(C(=O)c3cc4c(s3)-c3ccccc3S(=O)(=O)C4)CC2)cc1 [ML349, reference compound]"
  log10 IC50: -0.17
- Compound: "COc1ccc(N2CCN(C(=O)c3cc(B(O)O)cs3)CC2)cc1"
  log10 IC50: 0.03
- Compound: "COc1ccc(N2CCN(C(=O)c3ccc(-c4ccccc4B(O)O)s3)CC2)cc1"
  log10 IC50: 1.21

###

- Assay Target: APT2 (Homo sapiens, UniProt O95372)
- Sequence (O95372 whole entry): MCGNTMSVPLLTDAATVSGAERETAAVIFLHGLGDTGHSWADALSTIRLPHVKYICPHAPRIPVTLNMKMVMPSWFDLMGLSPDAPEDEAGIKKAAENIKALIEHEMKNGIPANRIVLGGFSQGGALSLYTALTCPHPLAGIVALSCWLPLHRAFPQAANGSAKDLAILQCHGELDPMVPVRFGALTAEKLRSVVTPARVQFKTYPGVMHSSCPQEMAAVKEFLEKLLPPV
- Experimental Protocol: APT2 enzymatic assay, resorufin acetate as fluorogenic substrate
- Assay type: biochemical
- Parameters: made in house; host or cells: E. coli BL21 (DE3)
- Condition Summary: Example 3 (FIG. 4); 15 min pre-incubation; read-out: IC50 APT2
Recorded IC50 by entry

- Compound: "COc1ccc(N2CCN(C(=O)c3cc(B(O)O)cs3)CC2)cc1 [KW5192]"
  Assay Target: "APT2 (Homo sapiens, UniProt O95372)"
  Quantity Unit: "µM"
  IC50: 1.1
- Compound: "COc1ccc(N2CCN(C(=O)c3cc4cc(B(O)O)c5ccccc5c4s3)CC2)cc1 [KW5129]"
  Assay Target: "APT2 (Homo sapiens, UniProt O95372)"
  Quantity Unit: "µM"
  IC50: 0.079

###

- Assay Target: APT2 (Homo sapiens)
- Experimental Protocol: APT2 enzymatic assay, resorufin acetate as fluorogenic substrate
- Format: biochemical
- Parameters: made in house; host or cells: E. coli BL21 (DE3)
- Condition Summary: IC50 APT2
pIC50: −log10 of the molar value.
Assay Readout: pIC50

- Smiles Text: "COc1ccc(N2CCN(C(=O)c3cc4cc(S(=O)(=O)F)c5ccccc5c4s3)CC2)cc1"
  Observed Value: 5.74

###

- Assay Target: APT1 (Homo sapiens)
- Construct: made in house; host or cells: E. coli BL21 (DE3)
- Experimental Protocol: APT1 enzymatic assay, resorufin acetate as fluorogenic substrate
- Type: biochemical
- Condition Summary: Example 3 (FIG. 4); 15 min pre-incubation; read-out: IC50 APT1
Assay Readout: IC50 (nM)

- Smiles Text: "COc1ccc(N2CCN(C(=O)c3cc4cc(B(O)O)c5ccccc5c4s3)CC2)cc1"
  Assay Readout: "IC50"
  Observed Value: 410

Each recorded value in this set is attributed to patent US20250092067A1.
